List of OTUB2 values.
# target_under_test: OTUB2 (OTUB2A) (Homo sapiens)
# Construct: full length residues 1-234, E. coli BL21(DE3)-R3, His tag removed by TEV, construct 27312 Da
# Sequence (Q96DC9 1-234): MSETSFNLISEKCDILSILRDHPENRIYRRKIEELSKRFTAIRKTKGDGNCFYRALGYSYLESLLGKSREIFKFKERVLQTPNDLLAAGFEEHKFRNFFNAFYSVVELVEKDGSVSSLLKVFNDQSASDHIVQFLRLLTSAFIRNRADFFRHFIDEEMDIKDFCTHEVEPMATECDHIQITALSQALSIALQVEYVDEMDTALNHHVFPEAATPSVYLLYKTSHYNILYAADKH
# Parameters: Intact protein LC/MS covalent labelling, fragments in pools of five, 200 uM each, 4 °C
# condition_details: 24 h, 4 °C, pool of five; 200 µM; covalent

# annotated cases, reported OTUB2 shown
# molecule, OTUB2
records = [
    ("CCOC(=O)N1CCN(C(=O)CCl)CC1", 0),
    ("CC(c1ccccc1)N(C)C(=O)CCl (stereo not drawn)", 0),
    ("CC(C)c1cc(NC(=O)CCl)on1", 0),
]

Sample C=CC(=O)N1CCC2C(CCCN2Cc2ccccc2)C1 (stereo not drawn) ; OTUB2 observed: 0

Sample N#Cc1ccc(C(=O)NNC(=O)CCl)cc1 ; OTUB2 observed: 0.14

Sample O=C(CCl)Nc1cccc(Cl)c1 ; OTUB2 observed: 0.37

----------
List of OTUB2 values.
# target_under_test: OTUB2 (OTUB2A) (Homo sapiens, UniProt Q96DC9)
# Construct: full length residues 1-234, E. coli BL21(DE3)-R3, His tag removed by TEV, construct 27312 Da
# Sequence (Q96DC9 1-234): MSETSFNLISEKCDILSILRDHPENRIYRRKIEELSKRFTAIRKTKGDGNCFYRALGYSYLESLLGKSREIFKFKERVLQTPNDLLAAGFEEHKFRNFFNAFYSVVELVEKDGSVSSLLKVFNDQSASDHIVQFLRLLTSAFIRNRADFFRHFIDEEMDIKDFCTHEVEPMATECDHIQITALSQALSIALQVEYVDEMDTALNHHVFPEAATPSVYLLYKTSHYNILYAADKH
# Set-up: Intact protein LC/MS covalent labelling, fragments in pools of five, 200 uM each, 4 °C
# condition_details: 24 h, 4 °C, pool of five; 200 µM; covalent

# annotated cases, reported OTUB2 shown
# molecule, measured_quantity, observed
data = [
    ("O=C(CCl)N1CCOCC1", "OTUB2", 0),
    ("CC(NC(=O)NC(=O)CCl)C1CC2CCC1C2 (stereo not drawn)", "OTUB2", 0.05),
    ("O=C(CCl)Nc1cccc(F)c1", "OTUB2", 0),
    ("C=CC(=O)NC(=O)NCc1ccccc1", "OTUB2", 0),
    ("Cc1cccc(C(C)C)c1NC(=O)CCl", "OTUB2", 0),
]

Sample O=C(CCl)NCC#Cc1cccc(C(F)(F)F)c1 ; OTUB2 observed: 0.84

----------
# target_under_test: OTUB2 (OTUB2A) (Homo sapiens)
# Construct: full length residues 1-234, E. coli BL21(DE3)-R3, His tag removed by TEV, construct 27312 Da
# Set-up: Intact protein LC/MS covalent labelling, fragments in pools of five, 200 uM each, 4 °C
# condition_details: 24 h, 4 °C, pool of five; 200 µM; covalent
measured_quantity: OTUB2

# annotated cases, reported OTUB2 shown
# compound, target_under_test, observed
data = [
    ("O=C(CCl)NC(=O)Nc1ccccc1F [PCM-0102376]", "OTUB2 (OTUB2A) (Homo sapiens)", 0),
    ("COc1ccc(C)cc1NC(=O)CCl [PCM-0103043]", "OTUB2 (OTUB2A) (Homo sapiens)", 0.27),
]

Sample O=C(CCl)NC(=O)NCc1ccccc1 [PCM-0102122] ; OTUB2 observed: 0

Sample N#CC(c1ccccc1)N1CCN(C(=O)CCl)CC1 (stereo not drawn) [PCM-0102381] ; OTUB2 observed: 0

Sample C=CC(=O)N1CCOc2ccccc21 [PCM-0102629] ; OTUB2 observed: 0

Sample NC(=O)c1ccccc1NC(=O)CCl [PCM-0102758] ; OTUB2 observed: 0

----------
# assay_procedure: in vitro
# Set-up: species or system CCD841, HEK293
# condition_details: human, hb2 cells, read-out: HB-2 Cells Viability (%)
List of viability at 48 h, 10 µM values.
Your answer is read as %, so omit the unit and give the number.

# annotated cases, reported viability at 48 h, 10 µM shown
# compound, measured_quantity, observed
rows = [
    ("C=CC(=O)N1CCN(C(=O)OC(C)(C)C)CC1 [PCM-0102419]", "viability at 48 h, 10 µM", 100),
    ("O=C(CCl)Nc1cc(C(=O)O)ccc1Cl [PCM-0102590]", "viability at 48 h, 10 µM", 103),
    ("CC(=O)N1CCN(C(=O)CCl)CC1 [PCM-0102535]", "viability at 48 h, 10 µM", 85.7),
    ("Cl.O=C(CCl)NCc1ccccn1 [PCM-0102950]", "viability at 48 h, 10 µM", 100),
    ("Cc1cc(NC(=O)CCl)n(-c2ccc(F)cc2)n1 [PCM-0102665]", "viability at 48 h, 10 µM", 57),
    ("Cc1c(C#N)sc(NC(=O)CCl)c1C#N [PCM-0102371]", "viability at 48 h, 10 µM", 94.3),
    ("C=CC(=O)N1CCN(c2nc3ccccc3o2)C(C)C1 (centres unmarked) [PCM-0102441]", "viability at 48 h, 10 µM", 96.7),
    ("O=C(CCl)NCC1CCS(=O)(=O)C1 (centres unmarked) [PCM-0102896]", "viability at 48 h, 10 µM", 102),
]

Sample C=CC(=O)NC1(c2nnc3n2CCCC3)CCC1 [PCM-0102639] ; viability at 48 h, 10 µM observed: 101

Sample C=CC(=O)N1CCCC1c1cccc2c1OCCO2 (centres unmarked) [PCM-0102489] ; viability at 48 h, 10 µM observed: 96.3

----------
List of viability at 48 h, 10 µM values.
# assay_procedure: in vitro
# Set-up: species or system HB2, CCD841
# condition_details: human, hek293 cells
Your answer is read as %, so omit the unit and give the number.

# annotated cases, reported viability at 48 h, 10 µM shown
# compound, unit_symbol, viability at 48 h, 10 µM
records = [
    ("CC(C)(C)N(Cc1cccc(F)c1)C(=O)CCl", "%", 22.2),
    ("CC1CCC2(CC1)NC(=O)N(NC(=O)CCl)C2=O (stereo not drawn)", "%", 99.9),
    ("CC1CCCC(NC(=O)NC(=O)CCl)C1C (stereo not drawn)", "%", 52.5),
    ("O=C(CCl)Nc1ccc(Cl)nc1", "%", 9),
    ("O=C(CCl)Nc1ccccc1N1CCOCC1", "%", 113),
    ("O=C(CCl)Nc1ccc2c(c1)OC1(CCCC1)O2", "%", 2.8),
    ("O=C(CCl)NC1CCC(C(F)(F)F)CC1 (stereo not drawn)", "%", 82.7),
    ("C=CC(=O)NCC1=CCCOC1", "%", 79.4),
]

Next, consider the following compound.
Sample O=C(CCl)N1CCC(c2nc3ccccc3s2)CC1 ; viability at 48 h, 10 µM observed: 15.4

----------
List of viability at 48 h, 10 µM values.
# assay_procedure: in vitro
# Set-up: species or system HB2, HEK293
# condition_details: human, ccd841 cells
Your answer is read as %, so omit the unit and give the number.

# annotated cases, reported viability at 48 h, 10 µM shown
# molecule, viability at 48 h, 10 µM, %
measured = [
    ("COCC(=O)NNC(=O)CCl [PCM-0103070]", 85.8),
    ("NC(=O)c1ccsc1NC(=O)CCl [PCM-0102314]", 74.4),
    ("C=CC(=O)N1CCC(NC(=O)OC(C)(C)C)CC1 [PCM-0102617]", 105),
    ("C=CC(=O)NC1(c2nnc3n2CCCC3)CCC1 [PCM-0102639]", 131),
    ("C=CC(=O)N1CCN(C2CCCN(C3CCOCC3)C2=O)CC1 (stereo not drawn) [PCM-0102886]", 105),
    ("CN(Cc1ccccc1F)C(=O)CCl [PCM-0102787]", 72.2),
]

Sample Cc1cc(N2CCCC2)ccc1NC(=O)CCl [PCM-0102301] ; viability at 48 h, 10 µM observed: 78.6

Sample O=C(CCl)Nc1c(Cl)cc(Cl)cc1C(=O)O [PCM-0102576] ; viability at 48 h, 10 µM observed: 105

Sample Cc1cc(NC(=O)CCl)on1 [PCM-0102197] ; viability at 48 h, 10 µM observed: 87.9

Sample CC(C)(C)NC(=O)NC(=O)CCl [PCM-0102540] ; viability at 48 h, 10 µM observed: 140

Sample CN(Cc1ccccc1)C(=O)CCl [PCM-0102984] ; viability at 48 h, 10 µM observed: 91.6

Sample Cn1cccc1C(=O)NC(=O)CCl [PCM-0102863] ; viability at 48 h, 10 µM observed: 112

Sample C=CC(=O)Nc1cccc(Br)c1 [PCM-0102667] ; viability at 48 h, 10 µM observed: 89.4

Sample C=CC(=O)N1CCC(C(=O)Nc2cc(C)on2)CC1 [PCM-0102477] ; viability at 48 h, 10 µM observed: 115

Sample Cl.O=C(CCl)N1CCN(c2cccc(Cl)c2)CC1 [PCM-0103032] ; viability at 48 h, 10 µM observed: 71.1

Sample Cc1cc(NC(=O)CCl)n(-c2ccccc2F)n1 [PCM-0103066] ; viability at 48 h, 10 µM observed: 65.3

Values from paper PMC6556873
